Recorded x-fold Koff improvement values for a group of binders are listed next.
# system.name: human NKp30 (human) (UniProt O14931)
# Sequence (O14931 19-135 limits assumed): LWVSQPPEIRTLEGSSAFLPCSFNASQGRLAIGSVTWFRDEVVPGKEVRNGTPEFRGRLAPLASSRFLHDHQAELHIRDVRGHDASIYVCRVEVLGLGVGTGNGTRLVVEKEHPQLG
# experiment.description: BLI, ratio to ΔB7-H6_wt

binder	x-fold Koff improvement
ΔB7-H6_S3#5-SEED-PGLALA (bispecific antibody, part only; not given: SEED Fc chains and hu225 Fab, part only) chain, part: DLKVEMMAGGTQITPLNDNVTIFCNIFYSQPLNITVMGITWFWKSLTFDKEVKVFEFWGDHQEAFRPGAIVSPWRLKSGDASLRLPGIQLEEAGEYRCEVVVTPYKAQGTVQLEVVASPAS	9.3 fold
ΔB7-H6_S2#11-SEED-PGLALA (bispecific antibody, part only; not given: SEED Fc chains and hu225 Fab, part only) chain, part: DLKVEMMAGGTQITPLNDNVTIFCNIFYSQPLNITTMGITWFWKSLTFDKEVKVFEFWQDHQEAFRPGAIVSPWRLKSGDASLRLPGIQLEEAGEYRCEVVVTPLKAQGTVQLEVVASPAS	1.5 fold
ΔB7-H6_S2#1-SEED-PGLALA (bispecific antibody, part only; not given: SEED Fc chains and hu225 EGFR Fab, part only) chain, part: DLKVEMMAGGTQITPLNDNVTIFCNIFYSQPLNITSMGITWFWKSLTFDKEVKVFEFYGDHQEAFRPGAIVSPWRLKSGDASLRLPGIQLEEAGEYRCEVVVTPYKAQGTVQLEVVASPAS	2.2 fold

Please look at the following binder next.
Report x-fold Koff improvement for ΔB7-H6_S2#13-SEED-PGLALA (bispecific antibody, part only; not given: SEED Fc chains and hu225 Fab, part only) chain, part: DLKVEMMAGGTQITPLNDNVTIFCNIFYSQPLNITSMGITWFWKSLTFDKEVKVFEFWGDHQEAFRPGAIVSPWRLKSGDASLRLPGIQLEEAGEYRCEVVVTPYKAQGTVQLEVVASPAS 2 fold
